System: KRAS patient-derived spheroids with HUVEC/MSC, viability;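 note: compound exposure lasted seven days before readout; 100% = DMSO vehicle control viability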
measurement_protocol: Anticancer human tumor 519858-162-T-J1-PDC patient-derived colon adenocarcinoma cell line growth inhibition [KRAS2]
cond: second compound 1 µM; first compound 0.01 µM; stronger effect = lower value
Assign labels as follows, please: class 1 for viability, T/C below 70%; class 0 for viability, T/C equal to or exceeding 70%.

Report whether reported viability, T/C is lower than 70% (strictly) for Cn1ncnc1[C@H]1c2n[nH]c(=O)c3cc(F)cc(c23)N[C@@H]1c1ccc(F)cc1 + COc1cc2nc(C)nc(NC(C)c3cc(N)cc(C(F)(F)F)c3)c2cc1OC1CCOC1 class 0

CC(=O)Nc1cccc(-n2c(=O)n(C3CC3)c(=O)c3c(Nc4ccc(I)cc4F)n(C)c(=O)c(C)c32)c1 + CNCc1ccccc1-c1csc(C(C)Nc2nc(C)nc3cc(OC)c(OC)cc23)c1 ? class 1

Please give the result for CC(C)n1nc(-c2ccc3oc(N)nc3c2)c2c(N)ncnc21 + COc1cc2nc(C)nc(NC(C)c3cc(N)cc(C(F)(F)F)c3)c2cc1OC1CCOC1 too. class 1

Let us now turn to CC(C)n1nc(-c2ccc3oc(N)nc3c2)c2c(N)ncnc21 + CNCc1ccccc1-c1csc(C(C)Nc2nc(C)nc3cc(OC)c(OC)cc23)c1 class 1

Entry CC1COCCN1c1cc(-c2ccnn2C)c2ccnc(-c3ccn[nH]3)c2n1 (stereo unspecified) + C=CC(=O)N1CCN(c2nc(OCC3CCCN3C)nc3c2CCN(c2cccc4cccc(C)c24)C3)CC1CC#N please class 0
